Items are presented alongside their recorded viability.
- assay comment: HUVEC growth inhibition – cell-based, human, primary screen (AID 575);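 also: 100% = median of untreated cell wells with 0.1% DMSO on each plate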
- condition: HUVEC proliferation, CellTiter-Glo luminescence, 72 h; at 10 µM; active compounds read low

{"molecule": "O=C1CC(Cc2ccccc2)C(=O)N1CCc1ccc2c(c1)OCO2 (stereo not given)", "viability [%]": 97.7}
{"molecule": "COc1ccccc1NC(=O)NC(N)=O", "viability [%]": 87.7}
{"molecule": "O=C(NCc1ccco1)c1noc2c1CCCCC2", "viability [%]": 96.4}
{"molecule": "O=c1cc(C(F)F)oc2c1ccc1ccccc12", "viability [%]": 74.8}
{"molecule": "CN1/C(=C\\C(=O)Nc2cccnc2)c2ccccc2CC1(C)C", "viability [%]": 99.3}
{"molecule": "O=C(CN(Cc1ccc(F)cc1)C(=O)c1ccco1)NCc1ccc(F)cc1", "viability [%]": 112}
{"molecule": "COc1ccc(-c2cn3cc(C)ccc3n2)cc1OC", "viability [%]": 91.5}
{"molecule": "Cc1cc(C(=O)Nc2cc(C)n(Cc3ccc(Cl)cc3)n2)no1", "viability [%]": 102}
{"molecule": "CCN1CCN(Cc2c(C)[nH]c3ccc(OC)cc3c2=O)CC1", "viability [%]": 96.8}
{"molecule": "CCN(CC)C(=O)CSC1=C(C#N)C(c2ccco2)C(C(=O)OCCOC)=C(C)N1 (stereo not given)", "viability [%]": 101}
{"molecule": "CN=C(Nc1ccc2c(c1)OCO2)SC1CC(=O)N(c2ccccc2)C1=O (stereo not given)", "viability [%]": 78.3}
{"molecule": "COc1cc(C2C(C#N)=C(C)NC3=C2C(=O)CC(C)(C)C3)ccc1O (stereo not given)", "viability [%]": 94.7}
{"molecule": "CCOC(=O)c1ccc(NC(=O)CSC2=NC(=O)C(CC)C(=O)N2)cc1 (stereo not given)", "viability [%]": 65.8}
{"molecule": "CCOC(=O)CNC(=O)Cn1cnc2c(nnn2-c2cccc(Cl)c2)c1=O", "viability [%]": 105}
{"molecule": "CCOC(=O)N1CCN(C(=O)C(NS(=O)(=O)c2cccc3nsnc23)c2ccccc2)CC1 (stereo not given)", "viability [%]": 100}
